pIC50: −log10 of the molar value.
These molecules were tested on DYRK1B (Homo sapiens (Human)); pIC50 is the recorded read-out.
PROPERTY LABEL: pIC50

INSERT INTO results (molecule, numeric_result) VALUES
  ('N#Cc1ccnc(NC(=O)c2csc(-c3ccc4c(c3)CCO4)n2)c1 [Compound 18]', 7.71),
  ('Cc1cc(NC(=O)c2csc(-c3ccc4c(c3)CCO4)n2)n[nH]1 [Compound 66]', 7.30),
  ('O=C(Nc1ccccn1)c1csc(-c2ccc3c(c2)CCO3)n1 [Compound 17]', 7.53),
  ('O=C(Nc1nc(SCc2ccccc2)n[nH]1)c1csc(-c2ccc3c(c2)CCO3)n1 [Compound 32]', 5.87),
  ('O=C(Nc1ncco1)c1csc(-c2ccc3c(c2)CCO3)n1 [Compound 79]', 6.12),
  ('CC(C)CSc1n[nH]c(NC(=O)c2csc(-c3ccc4c(c3)CCO4)n2)n1 [Compound 34]', 7.42),
  ('COc1ccc2[nH]c(NC(=O)c3csc(-c4ccc5c(c4)CCO5)n3)nc2c1 [Compound 4]', 7.86),
  ('O=C(Nc1nc2cc(C(=O)N3CCCC3)ccc2[nH]1)c1csc(-c2ccc3c(c2)CCO3)n1 [Compound 22]', 9.07),
  ('O=C(Nc1nc2ccc(C(=O)N3CCOCC3)cc2s1)c1csc(-c2ccc3c(c2)CCO3)n1 [Compound 51]', 8.04);

====

Endpoint: IC50. System: DYRK1B (Homo sapiens (Human), UniProt Q9Y463). Items follow.
Sequence (Q9Y463 whole entry): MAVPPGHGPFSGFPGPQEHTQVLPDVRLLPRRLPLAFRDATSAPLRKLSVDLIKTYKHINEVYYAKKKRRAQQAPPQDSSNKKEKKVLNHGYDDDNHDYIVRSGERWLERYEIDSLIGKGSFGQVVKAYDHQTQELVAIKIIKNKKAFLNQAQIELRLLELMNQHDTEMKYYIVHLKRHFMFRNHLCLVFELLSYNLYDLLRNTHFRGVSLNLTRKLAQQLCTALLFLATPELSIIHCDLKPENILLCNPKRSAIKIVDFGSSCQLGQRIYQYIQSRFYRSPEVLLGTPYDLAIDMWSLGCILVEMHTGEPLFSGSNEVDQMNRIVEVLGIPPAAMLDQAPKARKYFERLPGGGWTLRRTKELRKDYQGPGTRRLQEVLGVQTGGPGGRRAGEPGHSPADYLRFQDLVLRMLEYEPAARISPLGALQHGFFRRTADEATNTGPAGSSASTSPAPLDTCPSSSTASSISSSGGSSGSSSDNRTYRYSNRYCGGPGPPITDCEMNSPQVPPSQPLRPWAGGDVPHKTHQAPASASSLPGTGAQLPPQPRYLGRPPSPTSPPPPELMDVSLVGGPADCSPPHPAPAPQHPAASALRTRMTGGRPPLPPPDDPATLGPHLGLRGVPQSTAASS
PROPERTY LABEL: IC50 (nM)

INSERT INTO measurements (item_smiles, property_label, uom, numeric_result) VALUES
  ('CS(=O)(=O)c1ccc2[nH]c(NC(=O)c3csc(-c4ccc5c(c4)CCO5)n3)nc2c1', 'IC50', 'nM', 1.49),
  ('CN(C)C(=O)c1n[nH]c(NC(=O)c2csc(-c3ccc4c(c3)CCO4)n2)n1', 'IC50', 'nM', 72),
  ('Cn1c(NC(=O)c2csc(-c3ccc4c(c3)CCO4)n2)nc2ccccc21', 'IC50', 'nM', 17.6),
  ('O=C(Nc1nc(SCc2ccc(Cl)cc2)n[nH]1)c1csc(-c2ccc3c(c2)CCO3)n1', 'IC50', 'nM', 337),
  ('O=C(Nc1nnc(N2CCCCC2)s1)c1csc(-c2ccc3c(c2)CCO3)n1', 'IC50', 'nM', 12.6),
  ('CCOC(=O)CSc1n[nH]c(NC(=O)c2csc(-c3ccc4c(c3)CCO4)n2)n1', 'IC50', 'nM', 39.1),
  ('Cc1nc(NC(=O)c2csc(-c3ccc4c(c3)CCO4)n2)sc1C', 'IC50', 'nM', 125),
  ('O=C(Nc1nc(-c2ccncc2)n[nH]1)c1csc(-c2ccc3c(c2)CCO3)n1', 'IC50', 'nM', 2.06),
  ('CN(C)C(=O)c1ccc2[nH]c(NC(=O)c3csc(-c4ccc5c(c4)CCO5)n3)nc2c1', 'IC50', 'nM', 1.74),
  ('O=C(Nc1cc[nH]n1)c1csc(-c2ccc3c(c2)CCO3)n1', 'IC50', 'nM', 42.4),
  ('O=C(Nc1nc2cc(OC(F)(F)F)ccc2[nH]1)c1csc(-c2ccc3c(c2)CCO3)n1', 'IC50', 'nM', 29.4),
  ('O=C(Nc1nc2cc(C(F)(F)F)ccc2[nH]1)c1csc(-c2ccc3c(c2)CCO3)n1', 'IC50', 'nM', 90.9),
  ('N#Cc1ccc2[nH]c(NC(=O)c3csc(-c4ccc5c(c4)CCO5)n3)nc2c1', 'IC50', 'nM', 1.38),
  ('CCOC(=O)c1ccc2[nH]c(NC(=O)c3csc(-c4ccc5c(c4)CCO5)n3)nc2c1', 'IC50', 'nM', 3.63),
  ('O=C(Nc1nc2cc(C(=O)c3ccc[nH]3)ccc2[nH]1)c1csc(-c2ccc3c(c2)CCO3)n1', 'IC50', 'nM', 6.63);
